- tgt: Aminopeptidase N (Plasmodium falciparum (isolate 3D7)) (UniProt O96935)
- Sequence (O96935 whole entry, looked up): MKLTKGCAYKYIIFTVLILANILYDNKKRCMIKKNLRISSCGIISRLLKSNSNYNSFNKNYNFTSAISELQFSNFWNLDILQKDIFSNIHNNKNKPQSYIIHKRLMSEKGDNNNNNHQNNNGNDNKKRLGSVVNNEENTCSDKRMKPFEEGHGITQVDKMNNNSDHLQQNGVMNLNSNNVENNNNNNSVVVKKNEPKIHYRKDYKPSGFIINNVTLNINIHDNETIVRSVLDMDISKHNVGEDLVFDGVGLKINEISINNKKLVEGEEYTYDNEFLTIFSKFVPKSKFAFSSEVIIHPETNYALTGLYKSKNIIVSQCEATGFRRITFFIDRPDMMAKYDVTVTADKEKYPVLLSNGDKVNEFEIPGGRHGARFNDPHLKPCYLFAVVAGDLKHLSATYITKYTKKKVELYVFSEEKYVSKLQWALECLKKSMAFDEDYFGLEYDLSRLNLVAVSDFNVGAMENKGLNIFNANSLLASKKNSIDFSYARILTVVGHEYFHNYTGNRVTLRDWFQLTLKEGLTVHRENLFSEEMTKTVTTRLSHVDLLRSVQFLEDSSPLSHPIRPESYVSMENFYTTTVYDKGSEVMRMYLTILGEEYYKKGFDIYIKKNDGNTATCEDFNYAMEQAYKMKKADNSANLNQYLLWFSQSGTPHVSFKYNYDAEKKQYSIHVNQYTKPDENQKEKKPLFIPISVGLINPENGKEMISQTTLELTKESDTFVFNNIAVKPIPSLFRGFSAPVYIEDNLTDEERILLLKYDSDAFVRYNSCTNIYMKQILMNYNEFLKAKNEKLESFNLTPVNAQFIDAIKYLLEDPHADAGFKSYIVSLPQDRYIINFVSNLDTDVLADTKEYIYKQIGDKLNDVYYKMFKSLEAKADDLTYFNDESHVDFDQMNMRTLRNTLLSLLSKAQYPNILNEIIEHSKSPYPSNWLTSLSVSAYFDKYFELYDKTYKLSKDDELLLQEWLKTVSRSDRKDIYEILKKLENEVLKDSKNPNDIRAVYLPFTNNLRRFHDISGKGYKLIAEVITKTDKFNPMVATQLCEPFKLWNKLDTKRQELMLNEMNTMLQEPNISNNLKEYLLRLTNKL
- test description: malaria alanyl aminopeptidase activity blockers – biochemical, fluorogenic H-Leu-NHMec substrate, 1536-well (AID 1445);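 note: plate controls were DMSO full reaction for no effect and no enzyme background for full effect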
- condition parameters: recombinant M1AAP, H-Leu-NHMec fluorogenic kinetic assay; at 30 µM
Hit rate of the full screen: of about 220,000 compounds, about 910 (0.41%) were called active.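 Rule for the calls: active = primary inhibition above the hit cutoff, then over 50% inhibition at one or more dose response concentrations (cut at about 23% in these data, passing the limit was not always enough); inconclusive = conflicting primary data, or primary hits not chosen for dose response; inactive = low primary inhibition, or under 50% at every dose.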 The sample as a whole holds a higher share of actives than the screen did. Entries with a potency or affinity are not part of this list.
Assign a class; possible classes are T for active, F for inactive

Before answering, review these 3 worked examples.
[
  {
    "compound": "COC(=O)C1=C(Nc2ccc(C)cc2)C=C(C)C(C(=O)OC)C1c1ccc(OC)cc1 (configuration not stated)",
    "discrete label": "F"
  },
  {
    "compound": "CC(=O)/C(N=Nc1ccc(C(=O)O)cc1)=C(\\C)O",
    "discrete label": "F"
  },
  {
    "compound": "Cc1ccc(C)c(-n2c(Cc3cccs3)n[nH]c2=S)c1",
    "discrete label": "F"
  }
]

Called result for CC1CC(=O)Nc2ccccc2N1S(=O)(=O)c1ccc(Br)cc1 (configuration not stated) F

Called result for `N#C/C(=N\Nc1ccccc1)C(=N)N1CCCCC1` F

Called result for CC1CCc2nc3ccc(S(=O)(=O)N4CCC(C(=O)NC5CCCC5)CC4)cc3c(C(=O)O)c2C1 (configuration not stated) T

Called result for `CCC(C)(C)NC(=O)CN(Cc1ccccc1Cl)C(=O)CCC(=O)Nc1cc(C)ccn1` F

Called result for `COC(=O)N/N=C/c1cc([N+](=O)[O-])cc(Br)c1O` F

Called result for `O=C(O)c1ccc(-c2ccccn2)s1` F

Called result for `CCCNC(=O)C1CCN(S(=O)(=O)c2ccc(Br)cc2)CC1` F

Called result for `Nc1ccc(-c2ccc(C(=O)O)s2)cn1` F

Called result for `O=C(O)CCCC(=O)NNc1ncnc2ccccc12` F

Called result for C=CCC(=O)N1CCCC(CCC(=O)NCc2ccccc2F)C1 (configuration not stated) F

Called result for `O=C(Nc1ccc(-n2nncc2-c2ccco2)cc1)c1cccc(F)c1` F

Called result for `O=C(O)c1c2c(nc3ccc(S(=O)(=O)N4CCC(C(=O)NC5CCCC5)CC4)cc13)CCCCC2` T

Called result for `CCC(C)(C)NC(=O)CN(C(=O)CCC(=O)Nc1cc(C)ccn1)c1ccc2c(c1)OCO2` F

Called result for `Cc1ccc(-n2c(-c3nn(C)c(C)c3Cl)n[nH]c2=S)cc1` F

Called result for `O=C(CCCC(=O)N(CC(=O)NC1CCCC1)Cc1ccc2c(c1)OCO2)Nc1ccccn1` F

Called result for `COc1ccc(N/N=C(\C=N\O)C(=O)c2ccc(OC)cc2)cc1` T

----------
- tgt: Aminopeptidase N (Plasmodium falciparum (isolate 3D7)) (UniProt O96935)
- test description: malaria alanyl aminopeptidase activity blockers – biochemical, fluorogenic H-Leu-NHMec substrate, 1536-well (AID 1445);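 note: plate controls were DMSO full reaction for no effect and no enzyme background for full effect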
- condition parameters: recombinant M1AAP, H-Leu-NHMec fluorogenic kinetic assay; at 30 µM
The campaign covered roughly 220,000 compounds. About 910 (0.41%) were called active.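 How the source made its calls: active means primary inhibition above the hit cutoff, then over 50% inhibition at one or more dose response concentrations (cut at about 23% in these data, passing the limit was not always enough); inconclusive means conflicting primary data, or primary hits not chosen for dose response; inactive means low primary inhibition, or under 50% at every dose.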 Shown is part of a subset that was picked to be rich in actives. Entries with a potency or affinity are not part of this list.
Assign a class; possible classes are yes (1) (active), no (0) (inactive)

[
  {
    "compound": "O=C(COc1ccccc1[N+](=O)[O-])Nc1cccnc1",
    "discrete label": "no (0)"
  }
]

Called result for `CCc1ccc(S(=O)(=O)NCc2csc(C)n2)s1` no (0)
